Target Or Test System: Genome polyprotein (Poliovirus type 1 (strain Mahoney))
Test Method Notes: poliovirus RdRp elongation inhibitors, primary screen, biochemical, fluorescence polarization, total intensity (AID 588519)
Measurement Context: poliovirus polymerase elongation, measured here: total intensity read-out, stronger effect = lower value, compound at 16.7 µg/mL
Among all 150,000 compounds or so, about 1,000 (0.67%) were called active. The sample holds actives, similar compounds and a random draw of the others, so the mix is not that of the screen.
Reported % elongation values are given for each entry in this list.
Write the value in % as a bare number.

Just so you know, measured % elongation for CC(C)Sc1n[nH]c(=S)n1N came out at 88

Just so you know, measured % elongation for Cn1c(=O)c(=O)n(C)c2cc(NC(=O)c3ccccc3Br)ccc21 came out at 113

Just so you know, measured % elongation for COc1ccc(Cl)cc1N(C)C(=O)c1cc2c(=O)oc3ccc(C)cc3c2s1 came out at 113

Just so you know, measured % elongation for O=C1c2ccccc2C(=O)N1CCN1c2cccc3cccc(c23)S1(=O)=O came out at 101

====

Target Or Test System: Genome polyprotein (Poliovirus type 1 (strain Mahoney)) (UniProt P03300)
Sequence (P03300 1749-2209 limits assumed): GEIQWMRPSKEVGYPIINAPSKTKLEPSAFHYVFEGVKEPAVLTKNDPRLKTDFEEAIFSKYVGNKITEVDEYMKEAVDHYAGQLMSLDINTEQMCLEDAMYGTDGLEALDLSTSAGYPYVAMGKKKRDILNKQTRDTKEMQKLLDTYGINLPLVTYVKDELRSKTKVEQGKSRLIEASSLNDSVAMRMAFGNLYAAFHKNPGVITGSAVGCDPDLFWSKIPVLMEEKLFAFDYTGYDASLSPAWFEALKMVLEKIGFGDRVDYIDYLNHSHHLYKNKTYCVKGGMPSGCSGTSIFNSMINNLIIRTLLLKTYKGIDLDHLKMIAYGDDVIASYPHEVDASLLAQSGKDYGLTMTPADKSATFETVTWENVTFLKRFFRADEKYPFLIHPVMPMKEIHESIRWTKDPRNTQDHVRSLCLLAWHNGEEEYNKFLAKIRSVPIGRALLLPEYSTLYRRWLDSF
Test Method Notes: poliovirus RdRp elongation inhibitors, primary screen, biochemical, fluorescence polarization, total intensity (AID 588519)
Measurement Context: poliovirus polymerase elongation, measured here: FP z-score, stronger effect = lower value
The campaign covered roughly 150,000 compounds. About 1,000 (0.67%) were called active. The full list was thinned out, with actives kept by preference.
Experimental Endpoint: z-score
I only need the number, thanks.

Just so you know, measured z-score for CS(=O)(=O)c1nc2ccccc2[nH]1 came out at 0.4

Just so you know, measured z-score for O=C(NC1CCCCC1)c1ccc(-n2ccc3ccccc32)s1 came out at -0.2

Just so you know, measured z-score for Nc1[nH]c(=S)sc1C(=O)Nc1nccs1 came out at -3.3

====

Reported z-score values are given for each entry in this list.
Target Or Test System: Genome polyprotein (Poliovirus type 1 (strain Mahoney))
Test Method Notes: poliovirus RdRp elongation inhibitors, primary screen, biochemical, fluorescence polarization, total intensity (AID 588519)
Measurement Context: poliovirus polymerase elongation, measured here: FP z-score, stronger effect = lower value
In all, about 150,000 compounds went through this assay and about 1,000 (0.67%) were called active. Only a selection was taken, and actives are over-represented in it overall.
I only need the number, thanks.

Consider the worked cases shown below.
| Compound | z-score |
| --- | --- |
| C#CCN1CCS(=O)(=O)CC1 | -0.3 |
| Cc1cc(C(=O)COc2ccc(-n3ccnc3)cc2)c(C)n1-c1ccc2c(c1)OCO2 | 0.1 |
| CCN(CC(=O)Nc1ccc(S(=O)(=O)N2CCCC2)cc1)CC(=O)Nc1cccc(OC)c1 | -1.2 |
| Cc1ccc2nc(C)c3c(c2c1)N(c1ccccc1)CC3 | -2.3 |
| NC[C@@H]1O[C@H](O[C@@H]2[C@@H](CO)OC(O[C@@H]3[C@@H](O)[C@H](N)C[C@H](N)[C@H]3OC3O[C@H](CN)[C@@H](O)[C@H](O)[C@H]3N)[C@@H]2O)[C@H](N)[C@@H](O)[C@@H]1O (some centres undefined) | -1.4 |
| Cc1cc(NC(=O)c2ccccc2C)no1 | 0.4 |

Just so you know, measured z-score for CC(C)n1c(-c2ccncc2)n[nH]c1=S came out at 0.7

Just so you know, measured z-score for OC1CCN(C(=S)Nc2ccccc2)CC1 came out at 0

====

Target Or Test System: Genome polyprotein (Poliovirus type 1 (strain Mahoney)) (UniProt P03300)
Test Method Notes: poliovirus RdRp elongation inhibitors, primary screen, biochemical, fluorescence polarization, total intensity (AID 588519)
Measurement Context: poliovirus polymerase elongation, measured here: total intensity read-out, stronger effect = lower value, compound at 16.7 µg/mL
Hit rate of the full screen: of about 150,000 compounds, about 1,000 (0.67%) were called active. Shown is part of a subset that was picked to be rich in actives.
Experimental Endpoint: % elongation (%)
Write the value in % as a bare number.

Consider the worked cases shown below.
| Compound | Test Value |
| --- | --- |
| Cc1c(S(=O)(=O)O)oc2c1C(=O)C(=O)c1c-2ccc2c1CCCC2(C)C | 88 |
| CCCCN(C)C(=O)C1CCN(c2nn3cc(-c4ccc(OC)cc4)nc3s2)CC1 | 105 |
| COC(=O)c1c(NC(=O)c2cccs2)sc2c1C(C(=O)OC)CC2 (stereo not given) | 97 |
| CCOC(=O)c1cnc2c(C)cc(C)cc2c1Nc1ccc(N2CCOCC2)cc1 | 110 |

Just so you know, measured % elongation for Cc1cc(C(=O)COc2ccc(-n3ccnc3)cc2)c(C)n1-c1ccc2c(c1)OCO2 came out at 107

====

Target Or Test System: Genome polyprotein (Poliovirus type 1 (strain Mahoney)) (UniProt P03300)
Test Method Notes: poliovirus RdRp elongation inhibitors, primary screen, biochemical, fluorescence polarization, total intensity (AID 588519)
Measurement Context: poliovirus polymerase elongation, stronger effect = lower value, compound at 16.7 µg/mL
About 1,000 (0.67%) of roughly 150,000 compounds were called active. Only a selection was taken, and actives are over-represented in it overall.
Experimental Endpoint: % elongation

| Compound | % elongation |
| --- | --- |
| O=C1Nc2ccccc2C1=Nc1cccc(C(F)(F)F)c1 | 88% (active) |
| Nc1[nH]c(=S)sc1C(=O)Nc1nccs1 | 70% (active) |
| COc1ccccc1C(=O)COC(=O)COc1ccc(C#N)cc1 | 108% (inactive) |
| CCC(=O)c1cn(CC(=O)N2CCCC2)c2ccccc12 | 107% (inactive) |

Just so you know, measured % elongation for CC(C)(C)CNC(=S)NN came out at 98% (inactive)

Just so you know, measured % elongation for S=C(c1ccc(-c2ccccc2)o1)N1CCCCC1 came out at 99% (inactive)

====

Target Or Test System: Genome polyprotein (Poliovirus type 1 (strain Mahoney))
Test Method Notes: poliovirus RdRp elongation inhibitors, primary screen, biochemical, fluorescence polarization, total intensity (AID 588519)
Measurement Context: poliovirus polymerase elongation, compound at 16.7 µg/mL
The whole screen tested about 150,000 compounds, of which about 1,000 (0.67%) were called active. No stated cut-off is given here; in the data, active means % elongation below about 90%; inactive means the rest, inconclusive results apart. The entries come from a sample that favours actives as a whole.
Respond only with the outcome that fits, drawn from True for active, False for inactive

Assay outcome for N#Cc1c(N)n(Cc2ccc(Cl)cc2)c2nc3ccccc3nc12 : what was it?
True

Assay outcome for CNC(=O)C1Cc2cc(S(=O)(=O)N3CCCC3)ccc2N1C(C)=O (stereo not given) : what was it?
False

====

Target Or Test System: Genome polyprotein (Poliovirus type 1 (strain Mahoney)) (UniProt P03300)
Test Method Notes: poliovirus RdRp elongation inhibitors, primary screen, biochemical, fluorescence polarization, total intensity (AID 588519)
Measurement Context: poliovirus polymerase elongation, measured here: total intensity read-out, stronger effect = lower value, compound at 16.7 µg/mL
In all, about 150,000 compounds went through this assay and about 1,000 (0.67%) were called active. The list comes from a sample in which actives are over-represented; it also holds close analogues and randomly drawn compounds.
Reported % elongation values are given for each entry in this list.
Write the value in % as a bare number.

Consider the worked cases shown below.
| Compound Smiles | % elongation / % |
| --- | --- |
| CCn1c(=O)c(=O)n(CC)c2cc(N3CCCCC3)c(NC(=O)c3ccc(Cl)cc3)cc21 | 85 |
| CN1CCc2c(c(S)[nH]c(=S)c2C#N)C1 | 48 |
| O=C(Sc1ccc(Oc2ccc(SC(=O)c3ccco3)cc2)cc1)c1ccco1 | 51 |
| COC(=O)CSc1nnc2c(n1)[nH]c1ccccc12 | 108 |
| NC(=O)C1CCN(C(=S)Nc2ccccc2)CC1 | 103 |

Just so you know, measured % elongation for O=C1c2ccccc2C(=O)N1CC1OCc2ccccc2CO1 came out at 110

Just so you know, measured % elongation for O=C1CCC(=O)N1C(c1ccccc1)c1ccccc1 came out at 103

Just so you know, measured % elongation for COc1ccc(OCCOc2ccccc2F)cc1 came out at 102

Just so you know, measured % elongation for COc1ccccc1CNCc1ccc(C(=O)O)s1 came out at 113

Just so you know, measured % elongation for O=C(Oc1ccc(Br)cc1)c1ccco1 came out at 105

Just so you know, measured % elongation for COc1ccccc1CNC(=O)CS(=O)(=O)c1cccc2nsnc12 came out at 112

Just so you know, measured % elongation for CNC(=O)c1sc(NCc2ccccc2OC)nc1C came out at 89

Just so you know, measured % elongation for O=C(ON1C(=O)CCC1=O)c1ccccc1 came out at 89

Just so you know, measured % elongation for CCN(Cc1ccccc1)C(=O)c1cccc(N2C(=O)CCC2=O)c1 came out at 103

Just so you know, measured % elongation for CC[N+](CC)=c1scc(-c2ccc(Cl)cc2)s1 came out at 110

Just so you know, measured % elongation for CCn1c(=O)c(=O)n(CC)c2cc(N3CCCCC3)c(NC(=O)c3cccc(F)c3)cc21 came out at 107

Just so you know, measured % elongation for O=C1c2ccccc2C(=O)C1c1ccc2ccccc2c1 came out at 92

Just so you know, measured % elongation for COc1cc(C=Nc2c(C)n(C)n(-c3ccccc3)c2=O)ccc1OC(=O)c1ccco1 came out at 102

Just so you know, measured % elongation for O=C(CSc1ccc(Br)cc1)c1ccco1 came out at 89

Just so you know, measured % elongation for CC(C)/C=N/NC(=O)c1ccccc1 came out at 103
